Data origin, for the record: ChEMBL document CHEMBL3507680

TEST METHOD NOTES: Human HepG2 cell viability assay in 384 well format
Format: toxicity, cell-based
Design: dose 125 nL, time 70.5 hour; concentration not given beside the values
RUN PARAMETERS: HepG2 cells, read-out: Inhibition
VALUE KIND: cytotoxicity at 70.5 h

COMPOUND	VALUE KIND	VALUE MEASURED
COCCNC(=O)c1cc2c(c3ccccc3n2C)n1C(=O)N(C)C	cytotoxicity at 70.5 h	-9.07%

Problem: Give its cytotoxicity at 70.5 h value. Item: CNC(=O)[C@H]1C[C@@H]2CN(C(=O)c3cccnc3)C[C@@H]2N1S(C)(=O)=O
Solution: -11.1%

Problem: Give its cytotoxicity at 70.5 h value. Item: CCC(NC(=O)c1cc(CC(C)C)nn1C)c1ccnn1C (stereo not drawn)
Solution: -10.3%

====

TEST METHOD NOTES: Human HepG2 cell viability assay in 384 well format
Type: toxicity, cell-based
Design: dose 125 nL, time 70.5 hour; concentration not given beside the values
RUN PARAMETERS: HepG2 cells, read-out: Inhibition
VALUE KIND: cytotoxicity at 70.5 h

MOLECULE	VALUE MEASURED
O=C(c1ccnnc1)N1C[C@H]2CCC[C@@]2(COCC2CCOCC2)C1	-13%
O=C(NCC1CCSCC1)N(CCCO)C1CCc2ccccc21 (stereo not drawn)	24.2%
Cc1oncc1C(=O)N1CC[C@H]2[C@H](CO[C@@H]2CNS(C)(=O)=O)C1	-5.2%
c1ccc(N2CCCC3(COCCN(c4nccs4)C3)C2)nc1 (stereo not drawn)	-0.38%
CN(Cc1nc(Cc2ccccc2F)no1)CC1Cc2ccccc2O1 (stereo not drawn)	8.45%
CSc1nccn1-c1cccc(C(=O)NCCC(=O)NC(C)C)c1	-3.09%
CC(Cn1cccn1)NCc1cnc(N2CCCC2)nc1 (stereo not drawn)	-3.66%
CC(C)Cc1nc(OCC(=O)O)c(C#N)c2c1CCC2	3.53%
Cc1ccc(C)c(CS(=O)(=O)CC(=O)Nc2ccc(F)cc2F)c1	-7.2%
CC(=O)NC[C@H]1OC[C@@H](NC2CCC(F)(F)CC2)[C@@H]1O	-4.95%

Problem: Give its cytotoxicity at 70.5 h value. Item: CC/N=c1\nc(NCC)nc2n1C(O)(Nc1cccc(Cl)c1Cl)CS2 (stereo not drawn)
Solution: -1.29%

Problem: Give its cytotoxicity at 70.5 h value. Item: COCCN(Cc1ccc(C)o1)C(=O)Nc1nnc(C(F)F)s1
Solution: -7.33%

Problem: Give its cytotoxicity at 70.5 h value. Item: Cc1nc(CNC(=O)NCc2ccc(OCC3CC3)nc2)cs1
Solution: -5.23%

====

TEST METHOD NOTES: Human HepG2 cell viability assay in 384 well format
Assay type: toxicity, cell-based
Design: dose 125 nL, time 70.5 hour; concentration not given beside the values
RUN PARAMETERS: HepG2 cells, read-out: Inhibition
VALUE KIND: cytotoxicity at 70.5 h (%)
Quick reminder: number only, in %, skip the unit.

Some compounds with known cytotoxicity at 70.5 h results, for comparison:
COMPOUND	cytotoxicity at 70.5 h (%)
CCN(CC)S(=O)(=O)c1ccc2c(c1)N(Cc1cccnc1)C(=O)CS2	-4.53
COc1cc(C(=O)N(Cc2cnn(C)c2)C(C)C)ccc1OCC(N)=O	4.9
COCCOC(=O)N1CCn2nc(CN(C)Cc3nccs3)cc2C1	13.8

Problem: Give its cytotoxicity at 70.5 h value. Item: NC(=O)c1cc(NC(=O)N2CCCCCC2)ccc1F
Solution: 35.1

Problem: Give its cytotoxicity at 70.5 h value. Item: Cc1cc(S(=O)(=O)Nc2onc(C)c2C)c(C)s1
Solution: -3.24

Problem: Give its cytotoxicity at 70.5 h value. Item: O=C(Nc1nnc(C(F)F)s1)N[C@H](CCO)c1ccccc1
Solution: 0.703
